- assay_details: Phase 1 single-dose plasma pharmacokinetics in subjects with normal hepatic function, mild or moderate hepatic impairment
- Assay type: in vivo, human
- condition_info: human, plasma, po, 200 mg, Mild Hepatic Impairment; 48 h; 200 mg single oral dose; read-out: Plasma concentration, Median
test_readout: concentration at 48 h (ng/mL)
Numeric answer only, unit ng/mL assumed.

// N#CC1(c2ccc(NC(=O)c3cccnc3NCc3ccncc3)cc2)CCCC1 : concentration at 48 h value = 7.26

----------
- assay_details: Phase 1 single-dose plasma pharmacokinetics in subjects with normal hepatic function, mild or moderate hepatic impairment
- Assay type: in vivo, human
- condition_info: human, plasma, po, 200 mg, Mild Hepatic Impairment; 200 mg single oral dose; read-out: AUC0-∞, Geometric Mean
- Excerpt: Patients: 27 subjects were enrolled within the following groups based on their Child-Pugh (CP) classification score: • Group 1: Matched-control healthy subjects with normal hepatic function; • Group 2: Subjects with mild hepatic impairment (CP Class A, score of 5 or 6); • Group 3: Subjects with moderate hepatic impairment (CP Class B, score of 7 to 9). A parallel design strategy was adopted for the hepatic impairment groups. […]
test_readout: AUC(0-inf) (ng·h/mL)
All answers are understood in ng·h/mL, so give the number only.

Entry under test: N#CC1(c2ccc(NC(=O)c3cccnc3NCc3ccncc3)cc2)CCCC1 . Its AUC(0-inf) was 2310
